test.target: Nuclear factor NF-kappa-B p105 subunit (Homo sapiens) (UniProt P19838)
Sequence (P19838 1-433 limits assumed): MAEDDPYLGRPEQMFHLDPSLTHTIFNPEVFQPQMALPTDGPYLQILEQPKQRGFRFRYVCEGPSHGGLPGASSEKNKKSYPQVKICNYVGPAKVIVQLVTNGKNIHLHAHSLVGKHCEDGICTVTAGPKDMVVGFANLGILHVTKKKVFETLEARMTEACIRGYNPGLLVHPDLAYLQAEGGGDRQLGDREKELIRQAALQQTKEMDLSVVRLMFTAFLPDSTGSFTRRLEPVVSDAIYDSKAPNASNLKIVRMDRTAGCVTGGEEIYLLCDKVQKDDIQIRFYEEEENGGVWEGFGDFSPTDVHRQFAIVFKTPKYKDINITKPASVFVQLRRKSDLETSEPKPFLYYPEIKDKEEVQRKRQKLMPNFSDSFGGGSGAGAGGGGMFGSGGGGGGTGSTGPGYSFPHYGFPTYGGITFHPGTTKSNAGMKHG
experiment.summary: Inhibition of NF kappaB p50 subunit signaling pathway in human HeLa cells by biotinylated-ELISA
Assay type: cell-based
Would you mind telling me the reported ED50 of each entry?

In: Dear colleague, I am looking for the recorded ED50 of the following molecule: CC(=O)O[C@@H]([C@H]1C[C@@H]1C(=O)C(C)OC(=O)/C=C/c1ccc(O)c(O)c1)[C@H]1CC=CC(=O)O1 (some centres undefined) [BREVIPOLIDE E]
Out: > 50 µM

In: Could you share which ED50 value was measured for CC(=O)O[C@@H]([C@H]1C[C@@H]1C(=O)C(C)OC(=O)/C=C/c1ccc(O)cc1)[C@H]1CC=CC(=O)O1 (some centres undefined) [BREVIPOLIDE A] ?
Out: > 50 µM

In: Which ED50 reading was recorded for the molecule "COc1ccc([C@@]23Oc4cc(OC)cc(OC)c4[C@]2(O)[C@H](O)[C@H](C(=O)N(C)C)[C@H]3c2ccccc2)cc1" ?
Out: 2 µM

In: Fill in: ED50 of CC(OC(=O)/C=C\c1ccc(O)cc1)C(=O)[C@H]1C[C@@H]1[C@H](O)[C@H]1CC=CC(=O)O1 (some centres undefined) [BREVIPOLIDE F] is ___
Out: > 50 µM

In: // query ED50 value for entry "COc1ccc(-c2oc3cc(OC)c(O)c(O)c3c(=O)c2OC)cc1O"
Out: > 50 µM

In: Dear colleague, I am looking for the recorded ED50 of the following molecule: CC(=O)O[C@@H]([C@H]1C[C@@H]1C(=O)C(C)OC(=O)/C=C\c1ccc(O)cc1)[C@H]1CC=CC(=O)O1 (some centres undefined) [BREVIPOLIDE B]
Out: > 50 µM

In: So what does the record say about ED50 for CC(OC(=O)/C=C/c1ccc(O)c(O)c1)C(=O)[C@H]1C[C@@H]1[C@H](O)[C@H]1CC=CC(=O)O1 (some centres undefined) [BREVIPOLIDE C] ?
Out: > 50 µM

In: Please report the recorded ED50 for CC(OC(=O)/C=C/c1ccc(O)cc1)C(=O)[C@H]1C[C@@H]1[C@H](O)[C@H]1CC=CC(=O)O1 (some centres undefined) .
Out: 15.3 µM

In: Would you kindly share the measured ED50 for CC(OC(=O)/C=C\c1ccc(O)c(O)c1)C(=O)[C@H]1C[C@@H]1[C@H](O)[C@H]1CC=CC(=O)O1 (some centres undefined) [BREVIPOLIDE D] ?
Out: > 50 µM
